target: T1, recombinant human full-length TDP-43 (human, UniProt Q13148 1-414); assay: Luminex bead assay, antibody serial dilution, FL TDP-43 beads
T1 construct: Recombinant full-length protein; also called FL TDP-43; recFL TDP-43
T1 sequence (Q13148 whole entry): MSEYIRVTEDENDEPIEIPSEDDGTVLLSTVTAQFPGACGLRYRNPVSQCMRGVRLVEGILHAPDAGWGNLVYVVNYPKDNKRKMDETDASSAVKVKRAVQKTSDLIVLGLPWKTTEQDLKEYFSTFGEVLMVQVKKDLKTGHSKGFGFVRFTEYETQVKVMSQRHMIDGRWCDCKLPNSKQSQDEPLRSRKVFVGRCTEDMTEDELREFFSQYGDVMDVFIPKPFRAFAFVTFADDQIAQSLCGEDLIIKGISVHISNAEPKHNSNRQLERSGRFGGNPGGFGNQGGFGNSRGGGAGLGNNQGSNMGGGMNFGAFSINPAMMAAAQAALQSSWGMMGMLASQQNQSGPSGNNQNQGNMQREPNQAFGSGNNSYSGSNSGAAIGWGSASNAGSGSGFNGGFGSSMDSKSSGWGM
observation type: pEC50
pEC50 (log units): -log10 of the concentration in mol/L.

### Prompt Which pEC50 value belongs to ACI-7062-412A7-Ab1 (antibody, IgG2b, V domains shown, also called 412A7B7; clone 9) VH: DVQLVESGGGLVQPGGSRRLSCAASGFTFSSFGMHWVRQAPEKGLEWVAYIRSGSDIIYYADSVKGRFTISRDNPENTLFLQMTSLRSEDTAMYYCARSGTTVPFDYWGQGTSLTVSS VL: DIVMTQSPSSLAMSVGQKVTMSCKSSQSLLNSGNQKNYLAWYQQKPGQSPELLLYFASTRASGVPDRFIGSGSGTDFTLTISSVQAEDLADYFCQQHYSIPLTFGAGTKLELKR ?
### Response 10.52
